# study.target: ACMSD (Mus musculus, UniProt Q8R519)
# Construct: endogenous in cells; host or cells: primary mouse hepatocytes (frozen, commercial)
# Sequence (Q8R519 whole entry): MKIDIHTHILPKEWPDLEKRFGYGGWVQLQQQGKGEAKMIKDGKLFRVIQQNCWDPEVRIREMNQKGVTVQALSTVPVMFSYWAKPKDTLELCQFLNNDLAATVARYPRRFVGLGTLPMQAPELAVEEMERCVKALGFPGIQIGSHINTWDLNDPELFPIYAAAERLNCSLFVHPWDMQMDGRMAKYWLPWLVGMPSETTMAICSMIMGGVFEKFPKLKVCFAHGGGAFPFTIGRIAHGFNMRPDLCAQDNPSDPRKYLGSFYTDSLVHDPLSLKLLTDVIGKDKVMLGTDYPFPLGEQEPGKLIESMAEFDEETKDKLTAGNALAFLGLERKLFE
# method.summary: Quinolinic acid (QA) levels in primary mouse hepatocytes by LC-MS/MS, as indicator of ACMSD inhibition
# Assay type: cell-based
# condition: 3 μM compound, six hours, 500 μM tryptophan, ratio of QA formed with compound versus wells with no compound (DMSO)
experimental.readout: Quinolinic acid ratio (Range)

Reference set (5 entries):
>  <compound>
N#Cc1c(-c2ccccc2)nc(=O)[nH]c1SCC(=O)O [Compound 131]

>  <test.result>
* (2 to 4)

$$$$
>  <compound>
N#Cc1c(SCc2nnn[nH]2)[nH]c(=O)c(C(=O)N2CCCC2)c1-c1cccc(-c2ccccc2)c1 [Compound 126]

>  <test.result>
** (<4 to 6)

$$$$
>  <compound>
N#Cc1c(SCc2nnn[nH]2)[nH]c(=O)c(C(=O)Nc2ccccc2)c1-c1ccc(Cl)cc1 [Compound 124]

>  <test.result>
** (<4 to 6)

$$$$
>  <compound>
CNC(=O)c1c(-c2ccc(Cl)cc2)c(C#N)c(SCc2nnn[nH]2)[nH]c1=O [Compound 127]

>  <test.result>
* (2 to 4)

$$$$
>  <compound>
N#Cc1c(SCc2nnn[nH]2)[nH]c(=O)c(C(=O)N2CCCC2)c1-c1ccc(Cl)cc1 [Compound 125]

>  <test.result>
** (<4 to 6)

$$$$

Incoming: Identify the reported Quinolinic acid ratio (Range) for the following entry. N#Cc1c(SCc2nnn[nH]2)[nH]c(=O)c(Cl)c1-c1cccc(C(=O)Nc2ccccc2)c1 [Compound 123]
Outgoing: ** (<4 to 6)

Incoming: Identify the reported Quinolinic acid ratio (Range) for the following entry. O=C(O)c1cccc(CSc2nc(-c3ccccc3)nc(=O)[nH]2)c1 [Compound 128]
Outgoing: * (2 to 4)

Where do the numbers come from? From patent US20260078105A1.
